Target: AbnA-D2 (D2), his-tagged arabinase family protein (Geobacillus stearothermophilus T-6) (UniProt B3EYN2)
Test: porous silicon RIFTS (EOT) biosensor
Details: 5'-amino; Selection buffers listed (assay buffer and temperature not stated in material): AGR2 137 mM NaCl, 20 mM KCl, 10 mM Na2HPO4, 2 mM KH2PO4 pH 7.4; 6H7 50 mM …
attribute.measured: Kd (µM)
Write the number in µM without appending the unit.

Data request, read-out Kd, for GCTATGGGTGGTCTGGTTGGGATTGGCCCCGGGAGCTGGC [anti-his tag aptamer 6H7]
29
